- MEASUREMENT TARGET: hNaV1.7 (Homo sapiens)
- Construct: expressed in transfected cells; host or cells: HEK293
- Sequence (Q15858 whole entry): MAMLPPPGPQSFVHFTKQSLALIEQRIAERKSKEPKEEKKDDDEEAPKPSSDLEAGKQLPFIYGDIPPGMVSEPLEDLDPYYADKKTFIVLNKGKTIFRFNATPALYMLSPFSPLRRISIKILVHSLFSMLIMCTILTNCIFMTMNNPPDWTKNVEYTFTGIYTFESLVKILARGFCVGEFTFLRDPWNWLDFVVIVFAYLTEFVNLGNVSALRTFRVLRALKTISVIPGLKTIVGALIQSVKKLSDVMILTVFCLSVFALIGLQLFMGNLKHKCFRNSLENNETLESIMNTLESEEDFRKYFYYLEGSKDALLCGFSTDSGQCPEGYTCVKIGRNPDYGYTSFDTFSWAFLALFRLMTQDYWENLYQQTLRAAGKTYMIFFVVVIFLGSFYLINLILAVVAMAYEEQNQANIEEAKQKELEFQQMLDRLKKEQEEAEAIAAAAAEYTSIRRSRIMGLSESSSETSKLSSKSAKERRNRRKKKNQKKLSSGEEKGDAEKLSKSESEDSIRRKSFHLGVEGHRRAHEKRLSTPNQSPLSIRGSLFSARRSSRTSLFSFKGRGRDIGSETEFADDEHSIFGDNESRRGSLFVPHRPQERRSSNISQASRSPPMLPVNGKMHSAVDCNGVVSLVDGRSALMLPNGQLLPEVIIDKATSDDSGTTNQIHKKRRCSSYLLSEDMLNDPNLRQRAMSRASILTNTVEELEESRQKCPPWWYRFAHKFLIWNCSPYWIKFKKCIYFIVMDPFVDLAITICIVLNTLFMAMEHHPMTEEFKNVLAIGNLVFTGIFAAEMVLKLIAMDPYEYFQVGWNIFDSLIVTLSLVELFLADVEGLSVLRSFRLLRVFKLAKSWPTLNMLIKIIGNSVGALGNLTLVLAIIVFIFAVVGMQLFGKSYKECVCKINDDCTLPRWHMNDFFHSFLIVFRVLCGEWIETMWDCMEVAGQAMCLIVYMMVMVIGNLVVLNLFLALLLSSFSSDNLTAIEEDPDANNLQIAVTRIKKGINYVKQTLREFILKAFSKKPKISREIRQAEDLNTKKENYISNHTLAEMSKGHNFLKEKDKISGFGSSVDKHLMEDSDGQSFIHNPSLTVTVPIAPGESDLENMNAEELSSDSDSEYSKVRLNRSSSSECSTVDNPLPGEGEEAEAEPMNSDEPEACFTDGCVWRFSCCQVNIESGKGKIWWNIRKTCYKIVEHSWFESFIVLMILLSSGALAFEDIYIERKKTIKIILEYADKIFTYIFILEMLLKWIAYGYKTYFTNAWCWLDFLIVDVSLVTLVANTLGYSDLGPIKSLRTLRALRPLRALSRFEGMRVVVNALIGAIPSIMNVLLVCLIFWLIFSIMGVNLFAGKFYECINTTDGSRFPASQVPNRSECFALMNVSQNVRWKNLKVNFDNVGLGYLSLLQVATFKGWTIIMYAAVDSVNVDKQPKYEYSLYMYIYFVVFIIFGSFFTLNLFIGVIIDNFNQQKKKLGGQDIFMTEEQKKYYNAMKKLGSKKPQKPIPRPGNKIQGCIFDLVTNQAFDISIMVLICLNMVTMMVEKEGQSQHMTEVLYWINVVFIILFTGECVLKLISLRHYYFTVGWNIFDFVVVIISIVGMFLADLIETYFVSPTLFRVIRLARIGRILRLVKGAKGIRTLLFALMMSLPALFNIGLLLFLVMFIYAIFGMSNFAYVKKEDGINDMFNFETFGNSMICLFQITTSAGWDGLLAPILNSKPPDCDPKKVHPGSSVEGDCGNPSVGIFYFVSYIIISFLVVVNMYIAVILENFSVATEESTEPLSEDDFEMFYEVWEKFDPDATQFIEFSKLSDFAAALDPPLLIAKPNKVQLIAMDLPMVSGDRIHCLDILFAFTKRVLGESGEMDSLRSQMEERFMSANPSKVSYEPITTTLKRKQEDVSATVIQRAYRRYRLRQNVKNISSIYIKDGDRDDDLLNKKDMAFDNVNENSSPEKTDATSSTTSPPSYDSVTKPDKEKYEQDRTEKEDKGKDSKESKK
- TEST DETAILS: QPatch NaV1.7 assay (whole-cell patch clamp, QPatch16x)
- Format: cell-based
- TEST PARAMETERS: holding voltage −90 mV (most channels closed), HEK293-hNaV1.7 cells, read-out: QP Nav1.7 −90 mV pIC50 (converted)
Where a name gives a salt, the structure may show the parent alone.
Binary call on IC50 with cut-off 80 µM: strictly below means fulfilled, and equality or higher means not fulfilled.

Sample answers from the record:
| MOLECULE | MEASUREMENT TARGET | ASSIGNED LABEL |
| --- | --- | --- |
| CCOc1ccc(F)c(-c2cc(C)nc([C@@H]3CC[C@]4(CCNC4=O)N3)c2)c1 [Example 102, hydrochloride] | hNaV1.7 (Homo sapiens) | fulfilled |
| CN1CC[C@]2(CC[C@H](c3cc(-c4ccc(C(F)(F)F)cc4)c(OC(C)(C)C)cn3)N2)C1=O [Example 65, hydrochloride] | hNaV1.7 (Homo sapiens) | fulfilled |
| COc1cnc([C@@H]2CC[C@@]3(CCN(C)C3=O)N2)cc1-c1ccc(C(F)(F)F)cc1 [Example 154, hydrochloride] | hNaV1.7 (Homo sapiens) | not fulfilled |

query: IC50 strictly < 80 µM for this molecule? COc1cccc(-c2ccnc([C@H]3CC[C@@]4(CCN(C)C4=O)N3)c2)c1Cl [Example 80, hydrochloride]
result: not fulfilled

query: Is the reported IC50 for CCOc1ccc(F)c(-c2ccnc([C@H]3CC[C@@]4(CC(C)(C)NC4=O)N3)c2)c1 [Example 217, hydrochloride] strictly below 80 µM?
result: fulfilled

query: Hi there! Is IC50 for Cc1cc(-c2cc(C(F)(F)F)ccc2C#N)cc([C@@H]2CC[C@]3(CCN(C)C3=O)N2)n1 [Example 21, hydrochloride] below 80 µM, do you know?
result: not fulfilled
